# System: A498
# ASSAY_OVERVIEW: NCI-60 one-dose screen
# Assay type: cell-based
# PARTICULARS: Homo sapiens; A498, Renal Cancer panel; single dose 10^−5 M; read-out: Growth inhibition %

- MOLECULE: "Cc1ccc(CNc2c3ccccc3nc3ccccc23)cc1 [Compound 4, Acridin-9-yl-(4-methylbenzyl)-amine]"
  STUDY_TARGET: "A498"
  RESULT_UNIT: "%"
  inhibition at 10 µM: 92.4
- MOLECULE: "Fc1ccccc1CNc1c2ccccc2nc2ccccc12 [Compound 8, Acridin-9-yl-(2-fluorobenzyl)-amine]"
  STUDY_TARGET: "A498"
  RESULT_UNIT: "%"
  inhibition at 10 µM: 89.1
- MOLECULE: "Fc1cccc(CNc2c3ccccc3nc3ccccc23)c1F [Compound 20, Acridin-9-yl-(2,3-difluorobenzyl)-amine]"
  STUDY_TARGET: "A498"
  RESULT_UNIT: "%"
  inhibition at 10 µM: 101
- MOLECULE: "COc1ccc2nc3ccccc3c(NCc3ccccc3)c2c1 [Compound 25, Benzyl-(2-methoxyacridin-9-yl)-amine]"
  STUDY_TARGET: "A498"
  RESULT_UNIT: "%"
  inhibition at 10 µM: 114
- MOLECULE: "COc1ccc2nc3ccccc3c(NCc3ccc(F)cc3)c2c1 [Compound 28]"
  STUDY_TARGET: "A498"
  RESULT_UNIT: "%"
  inhibition at 10 µM: 108
- MOLECULE: "Fc1ccc(CNc2c3ccccc3nc3ccccc23)c(F)c1 [Compound 21, Acridin-9-yl-(2,4-difluorobenzyl)-amine]"
  STUDY_TARGET: "A498"
  RESULT_UNIT: "%"
  inhibition at 10 µM: 104
- MOLECULE: "Fc1ccc(CNc2c3ccccc3nc3ccccc23)cc1F [Compound 22, Acridin-9-yl-(3,4-difluorobenzyl)-amine]"
  STUDY_TARGET: "A498"
  RESULT_UNIT: "%"
  inhibition at 10 µM: 90.2
